The next entries give measured Ki for D(2) dopamine receptor (Homo sapiens, UniProt P14416).
Readout: Ki (nM)

structure_notation=COc1ccccc1N1CCN(CCCN2C(=O)CCc3ccccc32)CC1 target_or_test_system="D(2) dopamine receptor (Homo sapiens, UniProt P14416)" quantity_unit=nM obs_value=81.3
structure_notation=O=C1CCc2ccccc2N1CCCN1CCN(c2ccc(Cl)c(Cl)c2)CC1 target_or_test_system="D(2) dopamine receptor (Homo sapiens, UniProt P14416)" quantity_unit=nM obs_value=955
structure_notation=O=C1CCc2ccccc2N1CCCN1CCN(c2cccc(Cl)c2)CC1 target_or_test_system="D(2) dopamine receptor (Homo sapiens, UniProt P14416)" quantity_unit=nM obs_value=759

---

Listing of entries alongside the reported pIC50.
target: D(4) dopamine receptor (Homo sapiens); experiment: Antagonist activity at D4R (unknown origin) expressed in human HEK293T cells assessed as inhibition of dopamine-induced Gi protein activation pretreated for 10 mins followed by dopamine addition and measured after 2.5 mins by BRET assay; type: functional, cell-based
pIC50: −log10 of the molar value.
Readout: pIC50

structure_notation=Cc1ccc(N2CCN(CCCN3C(=O)CCc4ccccc43)CC2)cc1 obs_value=6.96
structure_notation=COc1ccc(N2CCN(CCCN3C(=O)CCc4ccccc43)CC2)cc1 obs_value=6.57
structure_notation=O=C1CCc2ccccc2N1CCCN1CCN(c2ccc(Cl)cc2)CC1 obs_value=6.60

---

The next entries give measured log10(Ki) for D(2) dopamine receptor (Homo sapiens, UniProt P14416).
Readout: log10(Ki) (log10 of the value in µM)

structure_notation=N#Cc1ccccc1N1CCN(CCCN2C(=O)CCc3ccccc32)CC1 readout=log10(Ki) obs_value=-0.45
structure_notation=Cc1ccc(N2CCN(CCCN3C(=O)CCc4ccccc43)CC2)cc1 readout=log10(Ki) obs_value=0.71
structure_notation=Cc1ccccc1N1CCN(CCCN2C(=O)CCc3ccccc32)CC1 readout=log10(Ki) obs_value=-0.40
structure_notation=O=C1CCc2ccccc2N1CCCN1CCN(c2ccccn2)CC1 readout=log10(Ki) obs_value=0.44
structure_notation=c1ccc(N2CCN(CCCc3nc4ccccc4s3)CC2)cc1 readout=log10(Ki) obs_value=0.25
structure_notation=Cc1cccc(N2CCN(CCCN3C(=O)CCc4ccccc43)CC2)c1 readout=log10(Ki) obs_value=0.16
structure_notation=O=C1CCc2ccccc2N1CCCCN1CCN(c2ccccc2)CC1 readout=log10(Ki) obs_value=0.05
structure_notation=c1ccc(N2CCN(CCCc3nc4ccccc4o3)CC2)cc1 readout=log10(Ki) obs_value=0.23
structure_notation=O=C1CCc2ccccc2N1CCCN1CCN(c2cccc([N+](=O)[O-])c2)CC1 readout=log10(Ki) obs_value=0.40
structure_notation=O=C1CCc2ccccc2N1CCCN1CCN(c2ccc(Cl)cc2)CC1 readout=log10(Ki) obs_value=0.74
structure_notation=c1ccc(N2CCN(CCCN3CCCc4ccccc43)CC2)cc1 readout=log10(Ki) obs_value=-0.15

---

Target: D(4) dopamine receptor (Homo sapiens)
Sequence (P21917 whole entry): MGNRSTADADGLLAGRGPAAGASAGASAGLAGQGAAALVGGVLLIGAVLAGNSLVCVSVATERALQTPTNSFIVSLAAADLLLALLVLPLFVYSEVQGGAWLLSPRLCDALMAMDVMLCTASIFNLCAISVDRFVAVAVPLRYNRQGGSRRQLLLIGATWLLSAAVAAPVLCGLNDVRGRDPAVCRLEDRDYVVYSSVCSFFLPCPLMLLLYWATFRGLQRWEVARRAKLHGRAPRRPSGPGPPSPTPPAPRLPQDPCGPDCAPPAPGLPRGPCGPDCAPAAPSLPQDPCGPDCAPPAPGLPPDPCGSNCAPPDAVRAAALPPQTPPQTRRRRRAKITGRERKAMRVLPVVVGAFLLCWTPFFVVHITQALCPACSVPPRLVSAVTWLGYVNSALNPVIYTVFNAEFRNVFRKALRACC
Test: Partial agonist activity at D4R (unknown origin) expressed in human HEK293T cells assessed as Gi protein activation measured after 2.5 mins by BRET assay
Format: functional, cell-based
Readout: EC50 (nM)

structure_notation=O=C1CCc2ccccc2N1CCCN1CCN(c2ccccn2)CC1 obs_value=12.3
